experimental_system: Voltage-gated potassium channel subunit beta-2 (Rattus norvegicus) (UniProt P62483)
Sequence (P62483 whole entry, looked up): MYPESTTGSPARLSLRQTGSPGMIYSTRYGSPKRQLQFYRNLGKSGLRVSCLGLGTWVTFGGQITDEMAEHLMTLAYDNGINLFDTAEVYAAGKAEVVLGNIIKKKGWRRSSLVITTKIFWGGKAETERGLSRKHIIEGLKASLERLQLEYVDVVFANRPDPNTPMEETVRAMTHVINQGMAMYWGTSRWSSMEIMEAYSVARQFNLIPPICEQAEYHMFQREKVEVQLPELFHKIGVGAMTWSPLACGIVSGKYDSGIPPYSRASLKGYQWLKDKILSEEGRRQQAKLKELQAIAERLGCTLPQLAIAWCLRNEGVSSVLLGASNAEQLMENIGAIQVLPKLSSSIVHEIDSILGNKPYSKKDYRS
experimental_details: KvBeta enzyme negative modulators, primary screen, biochemical, NADPH fluorescence (AID 622);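 further: slope of raw intensity against log time taken from 70 to 1610 s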
run_conditions: recombinant KvBeta, 4-cyanobenzaldehyde reduction, at 10 µM, stronger effect = higher value
observable: fluorescence slope

compound=Cc1nc2ccc(C(=O)c3ccccc3)cc2[nH]1 recorded_value=-0.389
compound=O=C(NC1CCCCC1)N(Cc1ccccc1)Cc1ccco1 recorded_value=-0.4
compound=C/C(NC(=O)c1cccs1)=C1\C(=O)C[C@@H]2[C@H]1C2(C)C recorded_value=-0.392
compound=CCOC(=O)c1c(C)n(C)c2ccc(OC)c(NC(=O)CN3CCC4(CC3)OCCO4)c12 recorded_value=-0.44
compound=O=c1ccc(S(=O)(=O)N2CCC(Cc3ccccc3)CC2)c[nH]1 recorded_value=-0.369
compound=Cc1cc(CC(=O)O)c(C)cc1CC(=O)O recorded_value=-0.445
compound=CCOC(=O)CSc1nnc([C@H](CC(C)C)NC(=O)OC(C)(C)C)o1 recorded_value=-0.501
compound=CCN(CC)C(=O)COn1c(SCC(=O)N(CC)CC)nc2ccccc2c1=O recorded_value=-0.42
compound=CCN(CC)Cc1cc(C(C)=O)ccc1OCC(C)C recorded_value=-0.462
compound=Cc1noc(C)c1CSc1ccccc1C(=O)N1CCN(c2ccccc2)CC1 recorded_value=-0.482
compound=Cc1nnc(SCC(=O)N2CC(=O)Nc3ccccc32)n1-c1ccccc1 recorded_value=-0.483
compound=O=[n+]1c2c(n([O-])c3cc(F)c(N4CCCC4)cc31)CCC2 recorded_value=-0.574
compound=CCCN(CC1CC1)C(=O)Nc1ccccc1C recorded_value=-0.529
compound=COc1cccc2cc(C(=O)N3CCN(c4ccc(C)cc4C)CC3)c(=O)oc12 recorded_value=-0.565
compound=N#C/C(=C\c1c(N2CCC(C(N)=O)CC2)nc2ccccn2c1=O)S(=O)(=O)c1ccccc1 recorded_value=-0.423
compound=O=C1CCCN1Cc1ncnn1-c1ccccc1 recorded_value=-0.349
compound=COC(=O)c1cc(-c2ccccc2)sc1NC(=O)c1cc(C)on1 recorded_value=-0.342
compound=CC(=O)N(C(C)=O)c1cccc2c(N(C(C)=O)C(C)=O)cccc12 recorded_value=-0.431
compound=N#Cc1c(NCCN)nc(NCc2ccccc2)c2c1CCN(Cc1ccccc1)C2 recorded_value=-0.466
compound=N#CCCNCC1(c2ccccc2)CCCC1 recorded_value=-0.576
compound="CCn1cc(C(C)NC(=O)COc2ccc(Cl)cc2C)c(C)n1 (stereo not drawn)" recorded_value=-0.404
compound=O=C(CCCCCn1c(=S)[nH]c2cc3c(cc2c1=O)OCO3)N1CCN(Cc2ccccc2)CC1 recorded_value=-0.476
compound="O=C(O)C1C2C=CC3(CN(C4CCCC4)C(=O)C13)O2 (stereo not drawn)" recorded_value=-0.546
compound="O=C(NCC(c1cccnc1)N1CCOCC1)c1cccs1 (stereo not drawn)" recorded_value=-0.414
compound=CC(=O)Nc1c(C(=O)C2CC2)oc2ccccc12 recorded_value=-0.448
compound=O=C(NCCCN1CCOCC1)c1ccc(CS(=O)(=O)c2c(Cl)cccc2Cl)o1 recorded_value=-0.458
compound="Cc1ccc(N(CC(O)CN(C)C)S(=O)(=O)c2ccccc2)cc1 (stereo not drawn)" recorded_value=-0.384
compound=CCC(=O)Nc1c(C#N)c2nc3ccccc3nc2n1C1CCCCC1 recorded_value=-0.342
